System: HL-60(TB) leukemia
ASSAY EXPLANATION: NCI tumour cell line growth inhibition, 48 h
Reported values of TGI for individual entries
ASSAY METRIC: TGI

> print(dat)
                                    compound      value
 1  CN1CCC2(CC1)NC(=O)c1c(c3ccc(Cl)c(Cl)c3n1C)C2C#N (stereo not given)  > 22.6 µM
 2  CCOC(=O)c1cc2c3c(c(C(C)=O)c(O)c2[nH]1)N(C(C)=O)CC3   > 100 µM
 3  N#Cc1ccc(CSC2=C(c3ccc(Cl)cc3)S/C(=C3\SC(SCc4ccc(C#N)cc4)=C(c4ccc(Cl)cc4)S3)S2)cc1   > 100 µM
 4  Nc1ccc(Oc2ccc(C3(c4ccc(Oc5ccc(N)cc5)cc4)C4CC5CC(C4)CC3C5)cc2)cc1    44.3 µM
 5  O=[N+]([O-])c1ccc(C2=Nn3c(nnc3-c3ccc(Cl)cc3)SC2)o1    6.28 µM
 6  CCOC(=O)CCSc1nc2ccc(I)cc2c(=O)n1Cc1ccccc1  > 73.7 µM
 7  Cc1ccc(C(=O)Cn2c(C(=O)/C=C/c3cccs3)nc3ccccc32)cc1   > 100 µM
 8  Clc1ccc(Nc2ccnc(N3CCN(c4ccnc5cc(Cl)ccc45)CC3)n2)cc1      20 µM
 9                                 CONC(C)=O   > 100 µM
10  CCSc1cc2c(cc1O)CC[C@@H]1[C@@H]2CC[C@]2(C)[C@@H](O)CC[C@@H]12   > 100 µM

###

Tested on: SN12C renal
ASSAY EXPLANATION: NCI tumour cell line growth inhibition, 48 h; in the data active means GI50 below about 0.43 µM; inactive means the rest
Outcomes: active, inactive

> print(dat)
                                   compound  category.label
1  Cc1cc(Nc2ncc3c(n2)N(C)C(=O)N(c2cc(NC(=O)c4cccc(C(F)(F)F)c4)ccc2C)C3)n(C)n1          active
2  CCCCCCn1c(-c2ccc(C(=O)O/N=C(\N)c3ccc4ccccc4c3)cc2)nc(-c2ccccc2)c1-c1ccccc1        inactive
3  CCCCCCCCCCCCSC1=C(Cl)C(=O)C(OC)=C(OC)C1=O        inactive
4  CC/C(=C(/c1ccc(O)cc1)c1ccc(OCCN)cc1)c1ccccc1        inactive
5  C[C@]12CC[C@@H]3c4cc(OC(F)F)c(OS(N)(=O)=O)cc4CC[C@H]3[C@@H]1CC[C@@H]2OS(N)(=O)=O        inactive
6  O=C([O][Hg][CH2]C1OCCOC1[CH2][Hg][O]C(=O)c1ccccc1)c1ccccc1 (centres undefined)        inactive
7  O=C1NC2C(=CC(O)C(O)C2O)c2cc3c(cc21)OCO3 (centres undefined)          active
8    CN(C)CCCCC(C(=O)CBr)(c1ccccc1)c1ccccc1        inactive
9  Cc1ccc2c(c1)c(Sc1ccc(C(=O)NO)cc1)c1n2CN(C)CC1        inactive

###

Reported values of TGI for individual entries
Test system: TK-10 renal
ASSAY EXPLANATION: NCI tumour cell line growth inhibition, 48 h
ASSAY METRIC: TGI

> print(dat)
                                   molecule     value
1  COc1cc2cc(C(=O)Nc3cc4n(n3)-c3ccccc3C4)[nH]c2c(OC)c1OC   9.27 µM
2  COC(=O)c1ccccc1NC(=NC1CCCCCC1)NS(=O)(=O)c1ccc(C)cc1  > 100 µM
3  CCOC(=O)c1cc2c3c(c(C(C)=O)c(O)c2[nH]1)N(C(C)=O)CC3  > 100 µM
4  Clc1ccc(C(Cc2cccc(Cl)c2)c2c(Cl)nc(N3CCNCC3)nc2Cl)cc1 (stereo unspecified)   30.4 µM
5        N/C(=N/N=C/c1ccccc1)N/N=C\c1ccccc1  > 100 µM
6                                 CONC(C)=O  > 100 µM

###

Tested on: NCI-H23 lung
ASSAY EXPLANATION: NCI tumour cell line growth inhibition, 48 h; in the data active means GI50 below about 0.43 µM; inactive means the rest
Outcomes: active, inactive

> print(dat)
                                   compound  category.label
1  CCN1C(=O)N(CC)C2C1NN=c1s/c(=C\c3ccco3)c(=O)n12 (stereo not given)        inactive
2    CN(C)CCCCC(C(=O)CBr)(c1ccccc1)c1ccccc1        inactive
3   CC(=O)Nc1c(I)c(NC(C)=O)c(I)c(C(=O)O)c1I        inactive
4      Cc1cc(O)cc(C)c1/C=C/c1cncc(C(N)=O)c1        inactive
5  Cc1nc(-c2nc(-c3ccc(OC(F)(F)F)cc3)no2)nn1Cc1cccc(N2CCC(S(C)(=O)=O)CC2)c1          active

###

Tested on: A549 NSCLC
ASSAY EXPLANATION: NCI tumour cell line growth inhibition, 48 h; in the data active = GI50 below about 0.43 µM; inactive = the rest
Outcomes: Yes for active, No for inactive

COMPOUND	CATEGORY LABEL
NC1CCCCC1N.O=[Se]([O-])[O-].[Pt+4] (configuration not stated)	No
COc1cccc(/C=N/NC(=O)c2ccccc2N2CCCC2)c1O	No
CC(C)(C)[Si](C)(C)OC1[C@@H](O[Si](C)(C)C(C)(C)C)[C@@H](CNC(=O)NC(=O)CF)O[C@H]1n1cnc2c(NC(=O)Nc3ccccc3)ncnc21 (some centres not stated)	No
CC[C@@H](C(=O)[C@H](C)[C@H](O)[C@@H](C)[C@H]1O[C@H]([C@@H](CC)C(=O)N(CC)CC)CC[C@H]1C)C1O[C@]2(C=C[C@@H](O)[C@]3(CC[C@@](C)([C@H]4CC[C@](O)(CC)[C@H](C)O4)O3)O2)[C@H](C)C[C@@H]1C (some centres not stated)	No
COc1cc(C(=O)N2CCN(c3ccccc3)CC2)c2ccccc2n1	Yes
C=C1C(=O)O[C@H]2[C@H]1CC/C(C=Nc1c(N)cc(C(F)(F)F)cc1C(F)(F)F)=C\CC[C@@]1(C)O[C@@H]21	No
COc1cc(/C(=C2/O[C@@H]([C@H]3COC(C)(C)O3)[C@H]3OC(C)(C)O[C@@H]23)c2ccc3ccccc3c2)cc(OC)c1OC	No

###

Test system: SR leukemia
ASSAY EXPLANATION: NCI tumour cell line growth inhibition, 48 h
ASSAY METRIC: TGI

> print(dat)
                                    molecule  assay.metric      value
 1  CC(=O)Oc1ccc2cc(Oc3ccc(Cl)c(Cl)c3)c(=O)oc2c1           TGI   > 100 µM
 2  CN(C)CCCSc1nc2c(c(=N)n1-c1ccccc1)c(=S)n(-c1ccccc1)c(=S)n2-c1ccccc1           TGI    1.07 µM
 3          CCOC(=O)Cc1csc(Nc2ccc(OCC)cc2)n1           TGI   > 100 µM
 4              CCCN(CCC)C(=S)N/N=C/c1ccccn1           TGI   0.247 µM
 5  CCN1C(=O)N(CC)C2C1NN=c1s/c(=C\c3ccco3)c(=O)n12 (stereo not given)           TGI   > 100 µM
 6             N#CCCCCCOCCOCCOCCOCCOCCCCCC#N           TGI   > 100 µM
 7  Cn1c(=O)c2c(nc3sc4c(n32)C(=O)c2c(O)ccc(O)c2C4=O)n(C)c1=O           TGI    3.23 µM
 8  Cc1ccc([N+](=O)[O-])cc1S(=O)(=O)Nc1ccc(C2=NOC(c3cccs3)C2)cc1 (stereo not given)           TGI    11.5 µM
 9          Cc1cc(C)n(-c2ccnc3cc(Cl)ccc23)n1           TGI   > 100 µM
10  CN(C)CCCNc1ncnc2c1ncn2C1OC(CO)C(O)C1O (stereo not given)           TGI   > 100 µM
11  COc1cc2ncnc(Nc3cccc(Cl)c3F)c2cc1OC(=O)N1CCN(C)C[C@H]1C           TGI  > 71.8 µM
12  N#Cc1ccc(CSC2=C(c3ccc(Cl)cc3)S/C(=C3\SC(SCc4ccc(C#N)cc4)=C(c4ccc(Cl)cc4)S3)S2)cc1           TGI   > 100 µM
13  CCOC(=O)C1(C(=O)OCC)C[C@@H](C)[C@@H](O)C1           TGI   > 100 µM
14  O=[N+]([O-])c1ccc(C2=Nn3c(nnc3-c3ccc(Cl)cc3)SC2)o1           TGI    1.16 µM
15                  O=C(O)CCc1nc2ccccc2[nH]1           TGI   > 100 µM
16                        NNC(=O)CCSc1ccccc1           TGI   > 100 µM
17  C[C@]12CC[C@@H]3c4cc(OC(F)F)c(OS(N)(=O)=O)cc4CC[C@H]3[C@@H]1CC[C@@H]2OS(N)(=O)=O           TGI   > 100 µM
18  Cc1ccc2c(c1)c(Sc1ccc(C(=O)NO)cc1)c1n2CN(C)CC1           TGI    8.93 µM
19         CCc1nc(N)nc(N)c1-c1ccc2nnn(O)c2c1           TGI   > 100 µM
20  O=C(/C=C/c1ccc(C(F)(F)F)cc1)c1c([O-])on[n+]1-c1ccccc1           TGI   0.846 µM
21  C=CCN1C[C@H](C)N([C@@H](c2ccc(C(=O)N3CCCCC3)cc2)c2cccc(OC)c2)C[C@H]1C           TGI    35.4 µM
22  C=C1C(=O)O[C@H]2[C@H]1CC/C(C=Nc1c(N)cc(C(F)(F)F)cc1C(F)(F)F)=C\CC[C@@]1(C)O[C@@H]21           TGI    5.17 µM
23  O=C(O)c1cc2c(cc1CC(Cc1ccc3c(c1)CCCC3)C(=O)O)CCCC2 (stereo not given)           TGI   > 100 µM
24  COc1ccc(-c2c3c(n(C4OC(COC(C)=O)C(OC(C)=O)C(OC(C)=O)C4OC(C)=O)c(=S)c2C#N)CCC3)cc1 (stereo not given)           TGI   > 100 µM
25                     Clc1ccc(CCn2cncn2)cc1           TGI   > 100 µM
26  Cc1cc(Nc2ncc3c(n2)N(C)C(=O)N(c2cc(NC(=O)c4cccc(C(F)(F)F)c4)ccc2C)C3)n(C)n1           TGI    1.21 µM
27  Nc1nc(Cl)cc(NCC(O)CO)n1 (stereo not given)           TGI   > 100 µM
28  CCOC(=O)C1(N)CCc2[nH][nH]c(=O)c2C1 (stereo not given)           TGI   > 100 µM
29      Cc1cc(O)cc(C)c1/C=C/c1cncc(C(N)=O)c1           TGI    > 25 µM
30  COC(=O)C1=C(OC(=O)c2ccccc2)C(C(=O)OC)[C@@]2(O)[C@@H](C(=O)OC)[C@H](C)C[C@@H]1[C@@H]2C(=O)OC (stereo not given in full)           TGI   > 100 µM
31         c1ccc2cc(NCNc3ccc4ccccc4c3)ccc2c1           TGI    31.4 µM
32  NC(=O)/C(=N\NC(=O)C[n+]1ccccc1)C1NC(=O)NC1=O (stereo not given)           TGI   > 100 µM
33  CCOC(=O)c1cc2c3c(c(C(C)=O)c(O)c2[nH]1)N(C(C)=O)CC3           TGI   > 100 µM
34  CN1CCC2(CC1)NC(=O)c1c(c3ccc(Cl)c(Cl)c3n1C)C2C#N (stereo not given)           TGI    5.36 µM
35  C#C/C=C\CCCCCCCCCCCCCC/C=C\CCCCC#CC(O)C#CCCCC/C=C\CCCCCC/C=C/C(O)C#C (stereo not given)           TGI  > 60.8 µM
36  CCOC(=O)Cn1c(=O)c2nc(SC)sc2n(-c2ccccc2)c1=S           TGI   > 100 µM
37  CC(C)CC(=O)NC(C(=O)NC(C(=O)NC(CC(C)C)C(O)CC(=O)NC(C)C(=O)NC(CC(C)C)C(O)CC(=O)O)C(C)C)C(C)C (stereo not given)           TGI   > 100 µM
38  S=C(NCCNC(=S)[S][Sn]([c]1ccccc1)([c]1ccccc1)[c]1ccccc1)[S][Sn]([c]1ccccc1)([c]1ccccc1)[c]1ccccc1           TGI    16.2 µM
39  COc1ccc2c(c1)CC[C@@H]1[C@@H]2CC[C@]2(C)c3c(cc(C(=O)O)c4sccc34)C[C@@H]12           TGI    45.1 µM
40  O=C(O)C(C(=O)O)P(=S)(S)c1ccccc1 (stereo not given)           TGI   > 100 µM
